test system: normal lymphocytes from peripheral blood; assay: Cell proliferation assay (MTS) on normal lymphocytes; details: Lymphocyte, 72 h, read-out: IC50 Lymph Norm.
QUANTITY NAME: IC50 (µM)
Numeric answer only, unit µM assumed.

// IC50 value for COc1cccc2c1C(=O)c1c(O)c3c(c(O)c1C2=O)C[C@@](O)(C(=O)CO)C[C@@H]3O[C@H]1C[C@H](N)[C@H](O)[C@H](C)O1 [Doxorubicin, reference compound] : 0.16

// IC50 value for C[C@]12C[C@H](N3CCN(C(=O)[C@@H]4CCCN4C(=O)c4ccc(C#N)cc4)CC3)[C@@H](O)C[C@@H]1CC[C@@H]1[C@@H]2CC[C@]2(C)[C@@H](O)CC[C@@H]12 [PC-41] : 19.3

// data source = patent US8653054B2
